Experiment: Molar enthalpy of transition or fusion
Conditions: Crystal 2; DSC
measured.property: Molar enthalpy of transition or fusion (kcal/mol)

CCCCCCCCCCCC(=O)[O-].[Li+] [lithium dodecanoate] | 1.66

[P] CCCCCCCCCC(=O)[O-].[Li+] [lithium decanoate]
[Q] CCCCCCCCCCC(=O)[O-].[Li+] [lithium undecanoate]
Prompt line: Between P and Q , whose recorded Molar enthalpy of transition or fusion is greater? Respond using the label that marks the chosen record.
Response line: Q
(Q: 3.3 kcal/mol, P: 0.111 kcal/mol)

[a] CCCCC(=O)[O-].[Li+] [lithium pentanoate]
[b] O=C[O-].[Li+] [lithium methanoate]
[c] CCCCCCC(=O)[O-].[Li+] [lithium heptanoate]
Prompt line: Order the records so the highest Molar enthalpy of transition or fusion appears first and the lowest last. Reply: labels, ordered per the request.
Response line: c, a, b

[A] CCC(=O)[O-].[Li+] [propionic acid, lithium salt]
[B] CCCCCCCCC(=O)[O-].[Li+] [lithium nonanoate]
Prompt line: Between A and B , whose recorded Molar enthalpy of transition or fusion is greater? Respond using the label that marks the chosen record.
Response line: B
(B: 1.92 kcal/mol, A: 0.817 kcal/mol)

====

Settings: Crystal 1; DTA
measured.property: Normal melting temperature (°C)

CCCCCCCCCCC(=O)[O-].[Li+] [lithium undecanoate] | 235.50
CCCCCCC(=O)[O-].[Li+] [lithium heptanoate] | 274.40
CCC(=O)[O-].[Li+] [propionic acid, lithium salt] | 331.00
CCCCCCCCCCCC(=O)[O-].[Li+] [lithium dodecanoate] | 227.40
O=C[O-].[Li+] [lithium methanoate] | 272.20
CCCCC(=O)[O-].[Li+] [lithium pentanoate] | 301.10
CCCCCCCCC(=O)[O-].[Li+] [lithium nonanoate] | 251.10

====

Assay: Molar enthalpy of transition or fusion
Conditions: Crystal 1; DSC
measured.property: Molar enthalpy of transition or fusion (kcal/mol)

Please review the entries below; each comes with its answer.
CCCCCCCCC(=O)[O-].[Li+] [lithium nonanoate] | 6.13
CCCCCCC(=O)[O-].[Li+] [lithium heptanoate] | 5.93
CCCCCCCCCCCC(=O)[O-].[Li+] [lithium dodecanoate] | 6.78

[1] CCCCCCCCCCC(=O)[O-].[Li+] [lithium undecanoate]
[2] O=C[O-].[Li+] [lithium methanoate]
Prompt line: Between 1 and 2 , whose recorded Molar enthalpy of transition or fusion is greater? Respond using the label that marks the chosen record.
Response line: 1
(1: 6.76 kcal/mol, 2: 3.84 kcal/mol)

====

Assay: Molar enthalpy of transition or fusion
Settings: Crystal; DSC
measured.property: Molar enthalpy of transition or fusion (kcal/mol)

Please review the entries below; each comes with its answer.
CCCCCC(=O)[O-].[Li+] [lithium hexanoate] | 5.49
CCCC(=O)[O-].[Li+] [lithium butanoate] | 4.96

[a] CC(=O)[O-].[Li+] [lithium acetate]
[b] CCCCCCCC(=O)[O-].[Li+] [lithium octanoate]
Prompt line: Between a and b , whose recorded Molar enthalpy of transition or fusion is greater? Respond using the label that marks the chosen record.
Response line: b

====

Conditions: Crystal; DTA
measured.property: Normal melting temperature (°C)

CCCCCCCC(=O)[O-].[Li+] [lithium octanoate] | 264.30
CCCC(=O)[O-].[Li+] [lithium butanoate] | 316.80
CCCCCC(=O)[O-].[Li+] [lithium hexanoate] | 287.20
CC(=O)[O-].[Li+] [lithium acetate] | 283.10

Data provenance is the NIST ThermoML archive (doi:10.1021/je400054m).
